# TARGET_DESC: Human complement C1s enzyme (Homo sapiens)
# Construct: purified from human serum, Complement Technology, Inc; purchased Complement Technology, Inc; host or cells: human serum (plasma-derived natural protein)
# Sequence (P09871 438-688 limits assumed): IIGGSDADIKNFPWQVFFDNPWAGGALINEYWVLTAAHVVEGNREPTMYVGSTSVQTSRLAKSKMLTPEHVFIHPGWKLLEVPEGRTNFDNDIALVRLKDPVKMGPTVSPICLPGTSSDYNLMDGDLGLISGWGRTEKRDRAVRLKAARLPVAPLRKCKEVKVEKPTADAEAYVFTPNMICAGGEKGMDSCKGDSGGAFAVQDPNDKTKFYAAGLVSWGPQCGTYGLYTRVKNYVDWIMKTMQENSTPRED
# Sequence (P09871 16-437 partner limits assumed): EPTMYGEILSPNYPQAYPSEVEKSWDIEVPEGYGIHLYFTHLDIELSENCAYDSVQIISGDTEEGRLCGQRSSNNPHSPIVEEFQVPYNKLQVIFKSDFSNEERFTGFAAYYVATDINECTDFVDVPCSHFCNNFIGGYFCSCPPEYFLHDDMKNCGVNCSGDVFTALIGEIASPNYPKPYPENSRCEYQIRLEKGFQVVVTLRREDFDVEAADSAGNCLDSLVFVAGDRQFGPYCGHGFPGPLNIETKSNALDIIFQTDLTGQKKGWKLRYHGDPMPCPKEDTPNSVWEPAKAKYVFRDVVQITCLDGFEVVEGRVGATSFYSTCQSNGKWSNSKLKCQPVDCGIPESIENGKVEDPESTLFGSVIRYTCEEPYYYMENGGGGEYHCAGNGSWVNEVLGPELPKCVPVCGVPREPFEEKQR
# METHOD_DESCRIPTION: Human C1s Enzyme Assay
# Format: biochemical
# MEASUREMENT_CONTEXT: Table 2; C1s purified from human serum, 1.16 nM; substrate Z-L-Lys-SBzl; read-out: C1s Protease Activity
pIC50: −log10 of the molar value.

COMPOUND_STRUCTURE_STRING | pIC50
N=C(N)c1csc(CNC(=O)[C@@H]2CCCN2C(=O)CCC(=O)c2ccc(Oc3ccccc3)cc2)c1 | > 7.00
N=C(N)c1csc(CNC(=O)[C@@H]2CCCN2CCCCc2ccc(Oc3ccccc3)cc2)c1 | < 6.00
CCCc1cc(C(=O)NCC(=O)N2CCC[C@H]2C(=O)NCc2cc(C(=N)N)cs2)ccc1Oc1ccccc1 | > 7.00
CCCCCOc1ccc(C(=O)NCC(=O)N2CCC[C@H]2C(=O)NCc2cc(C(=N)N)cs2)cc1 | > 7.00
CCCCCc1cc(C(=O)NCC(=O)N2CCC[C@H]2C(=O)NCc2cc(C(=N)N)cs2)ccc1Oc1ccccc1 | > 7.00
C[C@H](OCc1ccccc1)[C@H](OCc1ccccc1)[C@@H](OCc1ccccc1)[C@H](CN(CC(=O)N1CC2(C[C@H]1C(=O)NCc1nc(C(=N)N)cs1)OCCO2)C(=O)OCc1ccccc1)OCc1ccccc1 | < 6.00
Cc1cc(C(=O)NCC(=O)N2[C@H]3C[C@@]3(C)C[C@H]2C(=O)NCc2cc(C(=N)N)cs2)ccc1Oc1ccccc1 | > 7.00
Cc1cc(C(=O)NCC(=O)N2CCC[C@H]2C(=O)NCc2cc(C(=N)N)cs2)ccc1Oc1ccccc1 | > 7.00
CCCCCCCC(=O)NCC(=O)N1CCC[C@H]1C(=O)NCc1cc(C(=N)N)cs1 | > 7.00
N=C(N)NOCCNC(=O)[C@@H]1CC2(CN1C(=O)CNC(=O)c1ccc(Oc3ccccc3)cc1)OCCO2 | < 6.00
CCCCc1cc(C(=O)NCC(=O)N2CCC[C@H]2C(=O)NCc2cc(C(=N)N)cs2)ccc1Oc1ccccc1 | > 7.00
CO[C@@H]1C[C@H](C(=O)CNC(=O)c2ccc(Oc3ccccc3)cc2)[C@@H](C(=O)NCc2cc(C(=N)N)cs2)C1 | < 6.00
N=C(N)c1csc(CNC(=O)[C@@H]2CCCN2C(=O)CNC(=O)CCCCOc2ccccc2)c1 | > 7.00
N=C(N)c1csc(CNC(=O)[C@@H]2CCCN2C(=O)CNC(=O)CCCCCc2ccccc2)c1 | > 7.00
